- experiment: Differential scanning calorimetry in PBS of FN3 domains
- Type: physicochemical
- measurement_context: DSC in PBS; EGFR-binding FN3 domains and stabilised mutants
Label yes when Tm < 50 °C; otherwise no.

[Q] Is 50 °C strictly greater than the molecule's reported Tm? molecule: P54CR4-31v2: P54CR4-31 with mutations L17A, N46V, E86I; SEQ ID NO: 28 (protein, EGFR binding FN3 domain) LPAPKNLVVSEVTEDSARLSWTAPDAAFDSFLIQYQESEKVGEAIVLTVPGSERSYDLTGLKPGTEYTVSIYGVLGSYVFEHDVMLPLSAIFTT
[A] no

[Q] Given P54AR4-37v2: P54AR4-37 with mutations L17A, N46V, E86I; SEQ ID NO: 29 (protein, EGFR binding FN3 domain) LPAPKNLVVSEVTEDSLRLSWTWPYADLDSFLIQYQESEKVGEAINLTVPGSERSYDLTGLKPGTEYTVSIYGVHNVYKDTNMRGLPLSAEFTT , is recorded Tm strictly lower than 50 °C?
[A] no

[Q] Below 50 °C on Tm? Entry P54AR4-37: EGFR-binding FN3 domain, printed SEQ ID NO: 22 (that of P54AR4-73) (protein, left off: small tags and cut ends) LPAPKNLVVSEVTEDSLRLSWTWPYADLDSFLIQYQESEKVGEAINLTVPGSERSYDLTGLKPGTEYTVSIYGVHNVYKDTNMRGLPLSAEFTT
[A] yes

[Q] I'd appreciate it if you could check whether P54CR4-31: EGFR-binding FN3 domain, SEQ ID NO: 26 (protein, EGFR binding FN3 domain) LPAPKNLVVSEVTEDSLRLSWTAPDAAFDSFLIQYQESEKVGEAINLTVPGSERSYDLTGLKPGTEYTVSIYGVLGSYVFEHDVMLPLSAEFTT has Tm smaller than 50 °C.
[A] no
